Conditions: buffer; pH 7.4; 200.0 µM
Label scheme for solubility kinetic: lower than 20 µg/mL is -1, 20 µg/mL and above is 1.

Known results for compounds:
                                   compound  assigned_class
0      CCCCC(=O)Nc1ccc(C(=O)NCCN2CCOCC2)cc1               1
1  NC(=O)c1ccc(NC(=O)COC(=O)c2ccc3ccccc3n2)cc1              -1
2  CCn1c(=O)c(C(=O)NCc2ccccc2OC)c(O)c2ccccc21              -1
3             COc1ccccc1CC(=O)Nc1ccc(F)cc1F               1
4      Cc1cc(C)c2c(CC(=O)NCCc3ccccc3)coc2c1              -1

In: Hi team, for CCC(C(=O)OC)(C(=O)OC)c1ccc([N+](=O)[O-])cc1 , is the recorded solubility kinetic at or above 20 µg/mL?
Out: 1

In: Let us now turn to COc1cc(/C=C(\C#N)C(=O)NCC2CCCO2)ccc1OCCC(C)C (stereo not given)
Out: -1

----------
Provide the reported solubility kinetic of each item.
Details: buffer; pH 7.4; 200.0 µM

Worked cases, answers included:
>>> print(df.to_string())
                                   molecule   measurement
0  Cc1ccc(NC(=O)CN(C)C(=O)COC(=O)[C@@H](NC(=O)c2ccccc2F)C(C)C)cc1  > 68.6 µg/mL
1  CCc1noc(C)c1C(=O)OC(C)C(=O)Nc1ccc2c(c1)OCO2 (centres undefined)    14.4 µg/mL

Look up solubility kinetic for the entries below, preserving their order.
1. COC(=O)c1ccccc1NC(=O)c1ccc(F)cc1
2. CCc1ccccc1Cn1c(=O)oc2cccnc21
3. O=C(CSc1nc2ccccc2c(=O)n1-c1ccccc1)N1CCC1
4. Cc1cc(C(=O)Nc2ccc(C(=O)O)cc2)c(C)o1
5. COc1ccc(C(=O)NCCCNC(=O)c2cccnc2)cc1OC
6. O=C(NCC(c1ccco1)N1CCc2ccccc2C1)c1cccc(F)c1 (centres undefined)

Out:
["< 0.6 µg/mL", "> 38.1 µg/mL", "> 52.7 µg/mL", "> 38.9 µg/mL", "44.5 µg/mL", "28.7 µg/mL"]

----------
Details: buffer; pH 7.4; 200.0 µM
MEASUREMENT KIND: solubility kinetic (µg/mL)
Answers are plain numbers, in µg/mL.

>>> print(df.to_string())
                                 compound  unit_annotation  measurement
0  CC(C)(C)c1cc(NS(=O)(=O)c2ccc(Br)s2)no1            µg/mL         30.1

Look up solubility kinetic for the entries below, preserving their order.
1. Cc1c(Cl)cccc1NC(=O)CNC(=O)c1ccco1
2. Cc1cc(Cl)ccc1NC(=S)NCc1ccc(F)cc1
3. C[N+]1(C)C2CCC1CC(OC(=O)c1ccco1)C2.[Br-] (stereo not given)
4. CC(C)CC(=O)Nc1ccc([N+](=O)[O-])cc1Cl
5. Cc1cc(C)cc(OC(=O)c2cccnc2)c1
6. Cn1cc(/C=C/C(=O)c2ccccc2)c2ccccc21
7. CCOc1ccc(NC(=O)c2ccc3[nH]c(=O)c(=O)[nH]c3c2)cc1

Out:
[38.2, 2.8, 48.5, 9.8, 30.6, 0.7, 4.8]

Look up solubility kinetic for the entries below, preserving their order.
1. Cc1ccc(C(C)C)c(OCCn2ccnc2C)c1.O=C(O)C(=O)O
2. Cc1ccc(N2C(=O)c3ccccc3C2=O)cc1
3. Cc1ccccc1NC(=O)COc1cccc2c1CCNC2=O
4. Cc1cccc(NC(=O)Cn2cc(C(=O)C3CC3)c3ccccc32)c1C
5. N#Cc1ccc(Sc2ccccn2)c([N+](=O)[O-])c1

Out:
[46.7, 2.7, 46.1, 0.6, 36.5]

Look up solubility kinetic for the entries below, preserving their order.
1. COc1cc(/C=C/[N+](=O)[O-])ccc1OC(=O)c1cccnc1
2. CCSC(=O)NC1CCCCC1

Out:
3.7
14.4
